Below are pIC50 values recorded for Human immunodeficiency virus type 1 reverse transcriptase (Human immunodeficiency virus 1).
When answering, recall that pIC50 equals minus log10 of the concentration in mol/L, and write that number alone.

Dear colleague, please send me the reported pIC50 for `CC(C)CN(C[C@@H](O)[C@H](Cc1ccccc1)NC(=O)/C=C/c1ccc(O)c(O)c1)S(=O)(=O)c1ccc(N)cc1` when you can. 8.12

Dear colleague, please send me the reported pIC50 for `CCCN(C[C@@H](O)[C@H](Cc1ccccc1)NC(=O)CCc1ccc(O)c(OC)c1)S(=O)(=O)c1ccc(OC)cc1` when you can. 6.63

Dear colleague, please send me the reported pIC50 for `COc1cc(/C=C/C(=O)N[C@@H](Cc2ccccc2)[C@H](O)CN(CC(C)C)S(=O)(=O)c2ccc(SC)cc2)ccc1O` when you can. 7.00

Dear colleague, please send me the reported pIC50 for `CCCN(C[C@@H](O)[C@H](Cc1ccccc1)NC(=O)/C=C/c1ccc(O)c(OC)c1)S(=O)(=O)c1ccc(OC)cc1` when you can. 6.97

Dear colleague, please send me the reported pIC50 for `COc1ccc(S(=O)(=O)N(C[C@@H](O)[C@H](Cc2ccccc2)NC(=O)/C=C/c2cc(OC)c(O)c(OC)c2)C(C)C)cc1` when you can. 6.70

Dear colleague, please send me the reported pIC50 for `COc1ccc(S(=O)(=O)N(C[C@@H](O)[C@H](Cc2ccccc2)NC(=O)/C=C/c2cc(OC)c(O)c(OC)c2)C2CC2)cc1` when you can. 7.47

Dear colleague, please send me the reported pIC50 for `COc1ccc(S(=O)(=O)N(C[C@@H](O)[C@H](Cc2ccccc2)NC(=O)/C=C/c2ccc(O)c(O)c2)C(C)C)cc1` when you can. 7.27

Dear colleague, please send me the reported pIC50 for `COc1ccc(S(=O)(=O)N(C[C@@H](O)[C@H](Cc2ccccc2)NC(=O)CCc2cc(OC)c(O)cc2OC)C(C)C)cc1` when you can. 6.52

Dear colleague, please send me the reported pIC50 for `COc1ccc(S(=O)(=O)N(CC(C)C)C[C@@H](O)[C@H](Cc2ccccc2)NC(=O)/C=C/c2cc(OC)c(O)c(OC)c2)cn1` when you can. 7.94

Dear colleague, please send me the reported pIC50 for `COc1cc(CCC(=O)N[C@@H](Cc2ccccc2)[C@H](O)CN(CC(C)C)S(=O)(=O)c2ccc(SC)cc2)c(OC)cc1O` when you can. 7.22

Dear colleague, please send me the reported pIC50 for `COc1ccc(S(=O)(=O)N(C[C@@H](O)[C@H](Cc2ccccc2)NC(=O)/C=C/c2ccc(O)c(O)c2)C2CC2)cc1` when you can. 7.50

Dear colleague, please send me the reported pIC50 for `COc1ccc(S(=O)(=O)N(C[C@@H](O)[C@H](Cc2ccccc2)NC(=O)CCc2ccc(O)c(O)c2)C2CC2)cc1` when you can. 7.34

Dear colleague, please send me the reported pIC50 for `COc1ccc(S(=O)(=O)N(CC(C)C)C[C@@H](O)[C@H](Cc2ccccc2)NC(=O)CCc2ccc(O)c(O)c2)cc1` when you can. 8.46

====

I'd be grateful if you could share measured pIC50 for these entries.
When answering, recall that pIC50 equals minus log10 of the concentration in mol/L, and write that number alone.

State the measured pIC50 (Human immunodeficiency virus type 1 reverse transcriptase (Human immunodeficiency virus 1)) of `COc1ccc(S(=O)(=O)N(CC(C)C)C[C@@H](O)[C@H](Cc2ccccc2)NC(=O)CCc2ccc(O)c(OC)c2)cn1` 6.62

State the measured pIC50 (Human immunodeficiency virus type 1 reverse transcriptase (Human immunodeficiency virus 1)) of `CCCN(C[C@@H](O)[C@H](Cc1ccccc1)NC(=O)/C=C/c1ccc(O)c(O)c1)S(=O)(=O)c1ccc(OC)cc1` 7.27

State the measured pIC50 (Human immunodeficiency virus type 1 reverse transcriptase (Human immunodeficiency virus 1)) of `COc1cc(/C=C/C(=O)N[C@@H](Cc2ccccc2)[C@H](O)CN(CC(C)C)S(=O)(=O)c2ccc(N)cc2)ccc1O` 7.36

State the measured pIC50 (Human immunodeficiency virus type 1 reverse transcriptase (Human immunodeficiency virus 1)) of `COc1ccc(S(=O)(=O)N(C[C@@H](O)[C@H](Cc2ccccc2)NC(=O)/C=C/c2ccc(O)c(OC)c2)C(C)C)cc1` 7.06

State the measured pIC50 (Human immunodeficiency virus type 1 reverse transcriptase (Human immunodeficiency virus 1)) of `CC(C)CN(C[C@@H](O)[C@H](Cc1ccccc1)NC(=O)CCc1ccc(O)c(O)c1)S(=O)(=O)c1ccc(N)cc1` 8.02

State the measured pIC50 (Human immunodeficiency virus type 1 reverse transcriptase (Human immunodeficiency virus 1)) of `COc1ccc(S(=O)(=O)N(C[C@@H](O)[C@H](Cc2ccccc2)NC(=O)CCc2ccc(O)c(O)c2)C(C)C)cc1` 7.69

State the measured pIC50 (Human immunodeficiency virus type 1 reverse transcriptase (Human immunodeficiency virus 1)) of `COc1ccc(S(=O)(=O)N(CC(C)C)C[C@@H](O)[C@H](Cc2ccccc2)NC(=O)/C=C/c2ccc(O)c(OC)c2)cn1` 6.91

State the measured pIC50 (Human immunodeficiency virus type 1 reverse transcriptase (Human immunodeficiency virus 1)) of `COc1ccc(S(=O)(=O)N(CC(C)C)C[C@@H](O)[C@H](Cc2ccccc2)NC(=O)CCc2cc(OC)c(O)cc2OC)cc1` 7.14

State the measured pIC50 (Human immunodeficiency virus type 1 reverse transcriptase (Human immunodeficiency virus 1)) of `COc1ccc(S(=O)(=O)N(CC(C)C)C[C@@H](O)[C@H](Cc2ccccc2)NC(=O)/C=C/c2ccc(O)c(O)c2)cc1` 7.39

State the measured pIC50 (Human immunodeficiency virus type 1 reverse transcriptase (Human immunodeficiency virus 1)) of `COc1ccc(S(=O)(=O)N(CC(C)C)C[C@@H](O)[C@H](Cc2ccccc2)NC(=O)CCc2ccc(O)c(O)c2)cn1` 8.60

State the measured pIC50 (Human immunodeficiency virus type 1 reverse transcriptase (Human immunodeficiency virus 1)) of `COc1ccc(S(=O)(=O)N(CC(C)C)C[C@@H](O)[C@H](Cc2ccccc2)NC(=O)CCc2ccc(O)c(OC)c2)cc1` 6.69

State the measured pIC50 (Human immunodeficiency virus type 1 reverse transcriptase (Human immunodeficiency virus 1)) of `COc1ccc(S(=O)(=O)N(CC(C)C)C[C@@H](O)[C@H](Cc2ccccc2)NC(=O)/C=C/c2cc(OC)c(O)c(OC)c2)cc1` 6.90

State the measured pIC50 (Human immunodeficiency virus type 1 reverse transcriptase (Human immunodeficiency virus 1)) of `COc1ccc(S(=O)(=O)N(C[C@@H](O)[C@H](Cc2ccccc2)NC(=O)CCc2ccc(O)c(OC)c2)C2CC2)cc1` 6.55

State the measured pIC50 (Human immunodeficiency virus type 1 reverse transcriptase (Human immunodeficiency virus 1)) of `CCCN(C[C@@H](O)[C@H](Cc1ccccc1)NC(=O)CCc1ccc(O)c(O)c1)S(=O)(=O)c1ccc(OC)cc1` 8.12

State the measured pIC50 (Human immunodeficiency virus type 1 reverse transcriptase (Human immunodeficiency virus 1)) of `COc1cc(CCC(=O)N[C@@H](Cc2ccccc2)[C@H](O)CN(CC(C)C)S(=O)(=O)c2ccc(SC)cc2)ccc1O` 8.46

State the measured pIC50 (Human immunodeficiency virus type 1 reverse transcriptase (Human immunodeficiency virus 1)) of `CCCN(C[C@@H](O)[C@H](Cc1ccccc1)NC(=O)/C=C/c1cc(OC)c(O)c(OC)c1)S(=O)(=O)c1ccc(OC)cc1` 7.04

State the measured pIC50 (Human immunodeficiency virus type 1 reverse transcriptase (Human immunodeficiency virus 1)) of `COc1ccc(S(=O)(=O)N(C[C@@H](O)[C@H](Cc2ccccc2)NC(=O)/C=C/c2ccc(O)c(OC)c2)C2CC2)cc1` 7.36

State the measured pIC50 (Human immunodeficiency virus type 1 reverse transcriptase (Human immunodeficiency virus 1)) of `COc1ccc(S(=O)(=O)N(C[C@@H](O)[C@H](Cc2ccccc2)NC(=O)CCc2cc(OC)c(O)cc2OC)C2CC2)cc1` 8.05

State the measured pIC50 (Human immunodeficiency virus type 1 reverse transcriptase (Human immunodeficiency virus 1)) of `CSc1ccc(S(=O)(=O)N(CC(C)C)C[C@@H](O)[C@H](Cc2ccccc2)NC(=O)CCc2ccc(O)c(O)c2)cc1` 9.37

State the measured pIC50 (Human immunodeficiency virus type 1 reverse transcriptase (Human immunodeficiency virus 1)) of `COc1cc(CCC(=O)N[C@@H](Cc2ccccc2)[C@H](O)CN(CC(C)C)S(=O)(=O)c2ccc(N)cc2)c(OC)cc1O` 6.95

State the measured pIC50 (Human immunodeficiency virus type 1 reverse transcriptase (Human immunodeficiency virus 1)) of `COc1ccc(S(=O)(=O)N(CC(C)C)C[C@@H](O)[C@H](Cc2ccccc2)NC(=O)/C=C/c2ccc(O)c(OC)c2)cc1` 6.84

State the measured pIC50 (Human immunodeficiency virus type 1 reverse transcriptase (Human immunodeficiency virus 1)) of `COc1ccc(S(=O)(=O)N(CC(C)C)C[C@@H](O)[C@H](Cc2ccccc2)NC(=O)/C=C/c2ccc(O)c(O)c2)cn1` 7.45

State the measured pIC50 (Human immunodeficiency virus type 1 reverse transcriptase (Human immunodeficiency virus 1)) of `COc1cc(/C=C/C(=O)N[C@@H](Cc2ccccc2)[C@H](O)CN(CC(C)C)S(=O)(=O)c2ccc(SC)cc2)cc(OC)c1O` 7.29

State the measured pIC50 (Human immunodeficiency virus type 1 reverse transcriptase (Human immunodeficiency virus 1)) of `CSc1ccc(S(=O)(=O)N(CC(C)C)C[C@@H](O)[C@H](Cc2ccccc2)NC(=O)/C=C/c2ccc(O)c(O)c2)cc1` 7.67

State the measured pIC50 (Human immunodeficiency virus type 1 reverse transcriptase (Human immunodeficiency virus 1)) of `COc1ccc(S(=O)(=O)N(C[C@@H](O)[C@H](Cc2ccccc2)NC(=O)CCc2ccc(O)c(OC)c2)C(C)C)cc1` 7.39

State the measured pIC50 (Human immunodeficiency virus type 1 reverse transcriptase (Human immunodeficiency virus 1)) of `CCCN(C[C@@H](O)[C@H](Cc1ccccc1)NC(=O)CCc1cc(OC)c(O)cc1OC)S(=O)(=O)c1ccc(OC)cc1` 8.19

State the measured pIC50 (Human immunodeficiency virus type 1 reverse transcriptase (Human immunodeficiency virus 1)) of `COc1cc(CCC(=O)N[C@@H](Cc2ccccc2)[C@H](O)CN(CC(C)C)S(=O)(=O)c2ccc(N)cc2)ccc1O` 7.50

State the measured pIC50 (Human immunodeficiency virus type 1 reverse transcriptase (Human immunodeficiency virus 1)) of `COc1ccc(S(=O)(=O)N(CC(C)C)C[C@@H](O)[C@H](Cc2ccccc2)NC(=O)CCc2cc(OC)c(O)cc2OC)cn1` 8.53

State the measured pIC50 (Human immunodeficiency virus type 1 reverse transcriptase (Human immunodeficiency virus 1)) of `COc1cc(/C=C/C(=O)N[C@@H](Cc2ccccc2)[C@H](O)CN(CC(C)C)S(=O)(=O)c2ccc(N)cc2)cc(OC)c1O` 8.82
